test: Luminescence Cell-Based Dose Response HTS to Identify Inhibitors of 5'UTR Stem-Loop Driven Prion Protein mRNA Translation in H4 Neuroglioblastoma Cells. [Related pubchem assays: 1827 (Project Summary), 1813 (Primary HTS)]; type: functional
Calls of active or inactive are those of the source. Cut-off read from the data, not from the text of the source: actives have a measured EC50 and inactives only a lower limit.
Provide the reported EC50 of each item.

# count of solved cases: 5
compound=CN(C)CCNC(=O)c1csc(Nc2cccc3ccccc23)n1 parameter=EC50 observed_value="23.6 µM (active)"
compound=CC1CCN(c2ccccc2NC(=S)NC(=O)C(C)(C)C)CC1 parameter=EC50 observed_value="> 120 µM (not active)"
compound="COc1ccccc1NC(=O)C1=C(C)Nc2nc3ccccc3n2C1c1cccs1 (stereo not drawn)" parameter=EC50 observed_value="9.88 µM (active)"
compound=c1ccc(N=C2N=C(Nc3ccccn3)c3ccccc32)nc1 parameter=EC50 observed_value="> 120 µM (not active)"
compound=CCN(CC(=O)NCc1ccc(F)cc1)C(=O)/C=C/c1ccc(OC)c(S(=O)(=O)NC(C)C)c1 parameter=EC50 observed_value="> 120 µM (not active)"

Batch of 3 compounds: report EC50 for each.
1. CCOC(=O)c1sc(NC(=O)c2cccc(S(=O)(=O)N3c4ccccc4CC3C)c2)cc1C (stereo not drawn)
2. COc1cc(NC(=O)NCCN2CCN(c3ccc(Cl)cc3)CC2)ccc1C
3. O=C(OCc1ccccc1Cl)c1cc([N+](=O)[O-])ccc1N1CCOCC1

## Output
1. 13.6 µM (active)
2. > 120 µM (not active)
3. > 120 µM (not active)
